Test system: BT-549 breast
Protocol: NCI tumour cell line growth inhibition, 48 h
Answer each item with its documented TGI.
Number in µM, nothing else.

# TGI measured on BT-549 breast for item O=C1/C(=C/c2cccc(Br)c2)CCc2ccccc21 = 22.2

// assay BT-549 breast, entry Cc1cc2c(cc1-c1cc3c(cc1C)C(C(C)C)=C(O)C(=O)/C3=C\Nc1c3ccccc3nc3ccccc13)/C(=C/Nc1c3ccccc3nc3ccccc13)C(=O)C(O)=C2C(C)C , TGI value = 20.7

Item c1ccc2[nH]c(-c3ccc(-c4nccc5c4[nH]c4ccccc45)cc3)nc2c1 ; assay system BT-549 breast; TGI reported as 5.42

* * *

System: UO-31 renal
Protocol: NCI tumour cell line growth inhibition, 48 h; in the data active = GI50 below about 0.43 µM; inactive = the rest
Would you mind answering with one of these outcomes? active, inactive

Name the outcome recorded for CCCCCCCCCCCCCCCCCCOc1ccccc1CC(=O)OCC[N+]1(C)CCCCC1 in the assay.
inactive

Please share the test call associated with COc1ccc2nc3cccc([N+](=O)[O-])c3c(NCCCCCC(=O)O)c2c1 .
active

Could you check what this test reported for Cc1cc(O)c(C(C)C)cc1S(=O)(=O)O (tested in a mixture with another compound) ?
active

Short answer needed: outcome of this test for COc1ccc(-c2cc(=O)[nH]c3c(OC)c4ccccc4c(OC)c23)cc1 ?
inactive

# lookup: test call for Cc1cc2c(cc1C)N(C(=O)CCl)CC(=O)N2
inactive

How did this test come out for COc1ccc(-c2nc(-c3nc4ccc(OC)cc4[nH]3)c3ccccn23)cc1 ?
inactive

Test call, this compound: CCC[CH2][Sn]1([CH2]CCC)[O]C(=O)c2cccnc2[O]1
inactive

Any idea what this test logged for O=C([CH-]C(=O)c1ccccc1)c1ccccc1.O=C([CH-]C(=O)c1ccccc1)c1ccccc1.[La+3].[OH-].[OH3+] ?
inactive

Recorded call for C=C1C(=O)O[C@H]2[C@H]1CC/C(COC(=O)NCc1ccc(Cn3c(=O)sn(CCCl)c3=O)cc1)=C\CC[C@@]1(C)O[C@@H]21 ?
inactive

Recorded test call requested for CC1CCC(NC(=O)N(CCCl)N=O)CC1 (stereo not given)
inactive

Record lookup: outcome of this test for COc1cc2c(cc1C)NC(=O)/C2=C/c1ccccn1 ?
inactive

Called result for C(#Cc1ccccc1C#Cc1cccs1)c1cccs1
inactive

Hey, what did the test say about COC(=O)c1nc(-c2ccccc2)oc1S(=O)(=O)Cc1ccccc1 ?
inactive

Write down the call the test reported for this compound. Item: COc1ccc(-c2c[nH]c(C(=O)O)c2-c2cc(OC)c(OC)c(OC)c2)cc1
inactive

Kindly provide the recorded test outcome for the following compound: CC(C)(C)n1cc(-c2ccnc(NCCCNS(=O)(=O)c3ccc(C(F)(F)F)cc3)c2)c(-c2cccc(O)c2)n1
inactive

* * *

Tested on: A498 renal
Protocol: NCI tumour cell line growth inhibition, 48 h; in the data active = GI50 below about 0.43 µM; inactive = the rest
Classes to choose from: class 1 (active), class 0 (inactive)

Which outcome was assigned to C#Cc1c(F)ccc2cc(O)cc(-c3ncc4c(N5CC6CCC(C5)N6)nc(OC[C@@]56CCCN5C[C@H](F)C6)nc4c3F)c12 in this test?
class 0

Tell me the recorded outcome of this test for CC(C)(C)c1ccc(Oc2nccc(-c3c(-c4ccc(F)cc4)ncn3C3CCNCC3)n2)cc1 .
class 0

Answer briefly: the call reported for COc1cnc2c(c1)C(=O)c1c-2n(CCCn2ccnc2)c(=O)c2cc(F)ccc12 in this assay.
class 1

Test call for this compound, please: C=C1C(=O)O[C@H]2[C@H]1CC/C(COC(=O)NCc1cn(C)c3ccccc13)=C\CC[C@@]1(C)O[C@@H]21
class 0

Returns: the outcome recorded for O=C(CCCCCCCCC(=O)N/N=C\c1ccccc1O)N/N=C\c1ccccc1O in this assay.
class 0

Could you please tell me the result logged for COc1cc2c(cc1C)NC(=O)/C2=C/c1ccccn1 in this assay?
class 0

Short answer needed: outcome of this test for COc1c(C)c2c(c(O)c1C/C=C(\C)CCC(=O)O)C(=O)OC2 ?
class 1

State the result this test recorded for COc1cc2c(c(OC)c1OC)-c1ccc(SC)c(=O)cc1C(CO)C2 (stereo not drawn) .
class 1

Identify the outcome logged in this assay for the compound shown: Cc1cc2c(cc1C)N(C(=O)CCl)CC(=O)N2
class 0

What was the test verdict on Nc1c(C(=O)c2cccc(-c3ccncc3)c2)cnn1-c1ccc(F)cc1F ?
class 0

Which outcome was entered for the compound CCCCCCCCCCCCCCCCCCOc1ccccc1CC(=O)OCC[N+]1(C)CCCCC1 in this test?
class 0

Name the outcome recorded for C=C(C)C(=O)O[C@H]1CC(=C)[C@@H]2C[C@H](O)[C@](O)(CCl)[C@@H]2[C@H]2OC(=O)C(=C)[C@@H]21 in the assay.
class 0

Status in this test for COc1ccc(-c2c[nH]c(C(=O)O)c2-c2cc(OC)c(OC)c(OC)c2)cc1 ?
class 0

Could you kindly confirm the outcome this assay logged for COc1ccc(-c2cc(=O)[nH]c3c(OC)c4ccccc4c(OC)c23)cc1 ?
class 1

In this assay, the call recorded for COc1ccc(-c2nc(-c3nc4ccc(OC)cc4[nH]3)c3ccccn23)cc1 was what?
class 0

Dear all, I need the recorded test outcome for C[C@H]1[C@H](C)CC[C@]2(CO)CC[C@]3(C)C(=CC[C@@H]4[C@@]5(C)CCCNC(C)(C)[C@@H]5CC[C@]43C)[C@H]12 , thank you.
class 0

Each compound tested received a call. Report the one for COc1ccc2cc(C(=O)/C=C/c3ccc(Cl)cc3Cl)ccc2c1 .
class 0

Per the assay record, what outcome was assigned to CC(C)(C)n1cc(-c2ccnc(NCCCNS(=O)(=O)c3ccc(C(F)(F)F)cc3)c2)c(-c2cccc(O)c2)n1 ?
class 0

* * *

What TGI was measured for each of the following?
Tested on: SNB-19 CNS
Protocol: NCI tumour cell line growth inhibition, 48 h

Record COc1ccc(/C(COc2ccc3c(=O)cc(-c4ccccc4)oc3c2)=N\O)cc1 , field TGI: > 50 µM

Record [N-]=[N+]=Nc1ccccc1C(=O)N1C(=O)c2ccccc2C(=O)N(C(=O)c2ccccc2N=[N+]=[N-])c2ccccc21 . Reported TGI: > 100 µM

For O=C1c2ccccc2C(O)(O)C1(O)C1(O)C(=O)c2ccccc2C1(O)O (stereo unspecified) the compound record lists TGI as > 100 µM

Recorded TGI (compound Oc1c(C(Nc2cccc3cccnc23)c2ccccc2)ccc2cccnc12 (stereo unspecified) ): > 100 µM

Briefly, TGI measured for C=C1CCC2C3(C)COC(c4ccc(N(C)C)cc4)OC3CCC2(C)C1C/C=C1/C(=O)OCC1O (stereo unspecified) : 32.3 µM

The compound identified as O=C(c1cccs1)N(C(=S)N1CCN(c2ccccn2)CC1)c1ccccc1 registered its TGI at > 100 µM

Lookup result for C[N+](C)(C)CC(=O)N/N=C/c1oc(-c2c(O)ccc3ccccc23)c(-c2c(O)ccc3ccccc23)c1[N+](=O)[O-] ; measured TGI: > 100 µM

Input CCOc1cc(NC(C)=O)ccc1C(=O)NN1C(=O)C(Cl)C1c1ccccc1 (stereo unspecified) . Output TGI: 28.4 µM

Form: compound = CN(C)CC/C(=N\Nc1ccc([N+](=O)[O-])cc1)c1ccccc1 ; TGI = 28.9 µM

The value of TGI measured for the compound CC(=O)CC(=O)OC1CC(C)CCC1C(C)C (stereo unspecified) turned out to be > 100 µM

Lookup result for O=c1[nH]c2cc(Cl)ccc2nc1/C(=N\O)C(O)c1cccc([N+](=O)[O-])c1 (stereo unspecified) ; measured TGI: > 100 µM

// TGI value for CC1=NN(C(=O)c2ccccc2O)C(=O)/C1=C/c1ccco1 : > 91.1 µM

// TGI value for O=S1(=O)N=C(SCc2ccccc2)N(c2ccccc2)c2ccncc21 : > 100 µM

# compound CC1CCC(NC(=O)N(CCCl)N=O)CC1 (stereo unspecified) ; its TGI = 110 µM

Value of TGI reported for the compound CCOP(=O)(OCC)/C(C#N)=C/c1ncc[nH]1 is > 100 µM

Just so you know, measured TGI for O=C1/C(=C\c2ccc(O)cc2)CCC/C1=C/c1ccc(Cl)c(Cl)c1 came out at 18.3 µM

Per the record, C=C(C)C(=O)Nc1ccc(NC(C)C)cc1 has TGI of > 100 µM

Entry CC(C)=CCC/C(C)=C/CC/C(C)=C/CC/C(C)=C/C=C/C=C(\C)CC/C=C(\C)CC/C=C(\C)CCC=C(C)C ; TGI = > 100 µM

// recorded TGI for Clc1ccc(NCc2nnc(CCCCCCCCc3nnc(CNc4ccc(Cl)cc4)o3)o2)cc1 : > 100 µM

Notebook: Cn1c2ccccc2n2c(N=O)c(-c3ccccc3)nc12 , TGI read as > 100 µM

In plain terms, C[C@H]1[C@H](C)CC[C@]2(CO)CC[C@]3(C)C(=CC[C@@H]4[C@@]5(C)CCCNC(C)(C)[C@@H]5CC[C@]43C)[C@H]12 has a documented TGI of 3.43 µM
